assay: yeast display, Sf9 membrane polyspecificity reagent, FACS + sequencing; frameworks hold sequencing errors
measured_quantity: polyreactivity (PSR sort gate)

Field: example entries. Status: answers known.
sequence_text	measured_quantity	reported
QVQHVESGGGLVQAGGSLRLSCAASGIIFKLYAMGWYRQAPGKEREFVATITKTGGRTYYADSVKGRFTISRDNAKNTVYLQMNSLKPEDTAVYYCAARRVNGKMYYWGQGTQVTVSS	polyreactivity (PSR sort gate)	high polyreactivity
QVQLVESGGGLVQAGGSLRLSCAASGSIFGIYAMGWYRQAPGKERELVAAIRRGGSTYYADSVKGRFTISRDNAKNTVYLQMNSLKPEDTAVYYCNTDYHRLLRSRPKYYYWGQGTQVTVSS	polyreactivity (PSR sort gate)	high polyreactivity
QVQHVESAGGLVQAGGSLRLSCAASGRIFYVNAMGWYRPAPGKERQLVAAIRSAVGTYYADSVKGRFTISRDNAKNTVYLQMNSLKPEDTAVYYCNADASFREYRFYLIEMDYWGQGTKVTVSS	polyreactivity (PSR sort gate)	high polyreactivity
QVQLVESGGGLVQAGGSLRLSCAASGRIFTANAMGWYRQAPGKERELVAAISWRGGSTYYADSVKGRFTISRDNAKNTVYLQMNSLKPEDTAVYYCNKVGATWRQWFGYWGQGTQVTVSS	polyreactivity (PSR sort gate)	high polyreactivity

--- query ---
**Query** Entry under review: QVQLVESRGVLVQAGGSLRLSCAASGSIFYFYAMGWYRQAPGKERELVAAISWSGGSTYYADSVKGRFTISRDTSKNTVYLQMHSLKPEDTPVYYCNAADYWYWENDYWGQGTQVTVSS . Reported polyreactivity (PSR sort gate)?
**Result** low polyreactivity
